# credit: ChEMBL document CHEMBL3507680

Measured cytotoxicity at 70.5 h accompanies every entry in the list below.
# protocol_details: Human HepG2 cell viability assay in 384 well format
# Assay type: toxicity, cell-based
# Set-up: dose 125 nL, time 70.5 hour; concentration not given beside the values
# condition_notes: HepG2 cells, read-out: Inhibition
Report the figure in % without appending any unit label.

Could you tell me which cytotoxicity at 70.5 h is on file for O=C(c1ccccc1N1CCOCC1)N1CCCC(n2ccnc2)C1 (configuration not stated) ? -6.72

***
Could you tell me which cytotoxicity at 70.5 h is on file for `CCC(=O)N(C)Cc1cccc(OC(C)C)c1` ? -5.79

Could you tell me which cytotoxicity at 70.5 h is on file for `COc1cccc(-c2cc(NCc3nccn3C)n(C)n2)c1` ? -6.65

Could you tell me which cytotoxicity at 70.5 h is on file for `COc1ccccc1OC1(C(=O)O)CCN(c2ccccn2)CC1` ? 1.96

Could you tell me which cytotoxicity at 70.5 h is on file for CN(CCC1CCOCC1)C(=O)C1CCC(=O)N(Cc2ccccn2)C1 (configuration not stated) ? 13.4

Could you tell me which cytotoxicity at 70.5 h is on file for `Nc1nccnc1C(=O)N1CC(OCc2cccc3ccccc23)C1` ? 9.66

Could you tell me which cytotoxicity at 70.5 h is on file for `CC(=O)N(C)CCc1nc(-c2cc(C(N)=O)co2)cs1` ? -6.25

Could you tell me which cytotoxicity at 70.5 h is on file for O=C(C1CC1)N1CCCC(C2=Nc3ccccc3S(=O)(=O)N2)C1 (configuration not stated) ? -4.52

Could you tell me which cytotoxicity at 70.5 h is on file for `Cc1cc(C(=O)N2CCC3(CCC(=O)N(CC(N)=O)C3)CC2)ccc1O` ? -14

Could you tell me which cytotoxicity at 70.5 h is on file for `COC(=O)CC1CCN(C(=O)c2ccc(-n3nnnc3C)cc2)CC1` ? -11.6

Could you tell me which cytotoxicity at 70.5 h is on file for O=C(CC1C=CCC1)Nc1ncn(CC(=O)N2CCCCCC2)n1 (configuration not stated) ? -13.4

Could you tell me which cytotoxicity at 70.5 h is on file for `CCOCCN1CCN(Cc2nnc(-c3ccco3)o2)CC1` ? -5.68
